biological target: full-length beta-Catenin (Uniprot ID P35222) (Homo sapiens (Human)) (UniProt P35222); experiment: fluorescence polarization competition; peptide titrated against 5FAM-TCF4(10-53) bound to full-length beta-catenin
Sequence (P35222 whole entry): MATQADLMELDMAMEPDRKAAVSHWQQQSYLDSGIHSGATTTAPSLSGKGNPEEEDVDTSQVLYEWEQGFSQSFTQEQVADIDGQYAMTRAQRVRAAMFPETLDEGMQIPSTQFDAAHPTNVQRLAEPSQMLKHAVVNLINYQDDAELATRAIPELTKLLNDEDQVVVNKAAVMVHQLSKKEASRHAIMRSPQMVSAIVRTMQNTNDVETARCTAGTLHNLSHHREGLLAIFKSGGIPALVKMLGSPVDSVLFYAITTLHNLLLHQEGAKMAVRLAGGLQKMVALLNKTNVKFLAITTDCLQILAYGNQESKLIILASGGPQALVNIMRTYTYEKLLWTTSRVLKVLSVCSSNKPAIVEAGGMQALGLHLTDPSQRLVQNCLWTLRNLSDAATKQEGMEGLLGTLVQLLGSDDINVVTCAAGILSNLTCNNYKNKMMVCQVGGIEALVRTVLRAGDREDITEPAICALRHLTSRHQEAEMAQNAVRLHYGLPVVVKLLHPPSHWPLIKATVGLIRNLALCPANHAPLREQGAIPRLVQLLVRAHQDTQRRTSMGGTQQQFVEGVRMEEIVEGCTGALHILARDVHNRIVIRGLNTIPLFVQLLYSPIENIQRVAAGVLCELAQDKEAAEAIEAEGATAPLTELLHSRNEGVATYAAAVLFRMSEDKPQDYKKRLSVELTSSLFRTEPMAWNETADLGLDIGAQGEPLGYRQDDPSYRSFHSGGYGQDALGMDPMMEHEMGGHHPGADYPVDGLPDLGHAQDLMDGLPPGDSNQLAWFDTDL
Starred links: 1 amine or outer side, 2 acyl side, 3 side chain; linkers in the order of their positions; H or OH if unused. Positions of bridges follow the written chain, without caps; N, C: chain ends. Non-standard residues stand in square brackets, D forms with d. Primed or numbered codes have the meaning given here. B5(12) = 2-amino-2-(pent-4-en-1-yl)hept-6-enoic acid (two olefin side chains), C=CCCCC(CCCC=C)(N[*:1])C(=O)[*:2]; Phe(3-COOH) = N[C@@H](Cc1cccc(C(=O)O)c1)C(=O)O; Bta = N[C@@H](Cc1csc2ccccc12)C(=O)O; Lys(iPr) = CC(C)NCCCC[C@H](N)C(=O)O; αAllylPro = C=CC[C@@]1(C(=O)O)CCCN1; tBuAla = CC(C)(C)C[C@H](N)C(=O)O; 3Thi = N[C@@H](Cc1ccsc1)C(=O)O; PyrS2(4) = not defined here
# maps each entry to its IC50
Express your answer in nM, writing the number without its unit.

- Ac-[αAllylPro]D[tBuAla][B5(12)]D[Phe(3-COOH)]HAFL[PyrS2(4)][3Thi][Bta]F-NH2 (staple 1-4, 4-11; not fully specified; printed as Ac-PL3-Asp-Npg-B5-Asp-3COOHF-His-Ala-Phe-Leu-PyrS2-3Thi-BztA-Phe-NH2; reading uncertain) [I-1910]: 17

# ---- query binder ----
Fill in IC50 for record Ac-[αAllylPro]D[tBuAla][B5(12)]D[Phe(3-COOH)][Lys(iPr)]AFL[PyrS2(4)][3Thi][Bta]F-NH2 (staple 1-4, 4-11; not fully specified; printed as Ac-PL3-Asp-Npg-B5-Asp-3COOHF-iPrLys-Ala-Phe-Leu-PyrS2-3Thi-BztA-Phe-NH2; reading uncertain) [I-1909]
29
